So I've got a bunch of compounds here, and I need their residual activity values.
target: BTK (human) (UniProt Q06187); assay: radiometric filter-binding kinase assay, Kinase HotSpot; settings: compound 0.5 µM; ATP 10 µM
Sequence (Q06187 whole entry, looked up): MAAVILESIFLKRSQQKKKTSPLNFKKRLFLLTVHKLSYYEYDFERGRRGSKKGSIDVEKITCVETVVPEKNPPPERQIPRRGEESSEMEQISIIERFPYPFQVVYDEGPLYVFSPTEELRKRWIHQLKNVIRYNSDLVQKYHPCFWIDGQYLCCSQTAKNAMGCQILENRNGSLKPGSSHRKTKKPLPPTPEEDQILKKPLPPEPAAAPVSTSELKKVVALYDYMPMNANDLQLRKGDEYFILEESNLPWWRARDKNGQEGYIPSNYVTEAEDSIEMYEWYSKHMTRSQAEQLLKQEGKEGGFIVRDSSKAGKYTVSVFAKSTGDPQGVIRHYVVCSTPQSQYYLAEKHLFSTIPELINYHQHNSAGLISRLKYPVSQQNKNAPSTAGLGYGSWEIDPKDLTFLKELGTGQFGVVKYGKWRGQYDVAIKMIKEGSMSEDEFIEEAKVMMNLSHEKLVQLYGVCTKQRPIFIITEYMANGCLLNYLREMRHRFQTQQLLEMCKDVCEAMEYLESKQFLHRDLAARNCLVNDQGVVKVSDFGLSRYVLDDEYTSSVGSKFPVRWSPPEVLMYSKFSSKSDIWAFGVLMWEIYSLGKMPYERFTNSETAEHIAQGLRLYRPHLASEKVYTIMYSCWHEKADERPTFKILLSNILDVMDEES
Phrase the answer as number then unit, nothing more needed.

> print(dat)
                         chemical.structure                   system.name  reported
1  CCN(CC)CCNC(=O)c1c(C)[nH]c(/C=C2\C(=O)Nc3ccc(F)cc32)c1C  BTK (human) (UniProt Q06187)     50.2%
2  Oc1cccc(-c2nc(N3CCOCC3)c3oc4ncccc4c3n2)c1  BTK (human) (UniProt Q06187)     95.2%
3  N#C/C(=C(/N)Sc1ccc(N)cc1)c1ccccc1C(F)(F)F  BTK (human) (UniProt Q06187)     93.5%
4  CC#CC(=O)Nc1cc2c(Nc3ccc(F)c(Cl)c3)ncnc2cn1  BTK (human) (UniProt Q06187)     2.88%

Report residual activity for every entry below.
1. O=c1cc(N2CCOCC2)oc2c1ccc1ccccc12
2. N#CC(C#N)=C(N)/C(C#N)=C/c1ccc(O)cc1
3. COc1ccc2c(c[n+](C)c3c4cc5c(cc4ccc23)OCO5)c1OC

Solution:
1: 112%; 2: 99.7%; 3: 98.6%

Report residual activity for every entry below.
1. Cc1ccc(S(=O)(=O)/C=C/C#N)cc1
2. O=C1Nc2ccc(Cl)cc2/C1=C/c1cc(Cl)c(O)c(Cl)c1
3. Cc1ccc(NC2=CC(=O)c3sc(C)nc3C2=O)cc1
4. COc1ccc(COc2ccc(Cc3cnc(N)nc3N)cc2OC)cc1

Solution:
1: 94.4%; 2: 92.1%; 3: 99.2%; 4: 104%

Data origin: the kinase profiling compilation of Christmann-Franck et al. (2016)
